Experiment: physchem
Details: water
Assay Readout: solubility (µg/mL)
Give bare numbers, in µg/mL.

Ask: Value lookup for solubility; key = Cc1ccc(Cl)c(Nc2ccccc2C(=O)O)c1Cl
Result: 30
